Data provenance: ChEMBL document CHEMBL3046559

Overview of reported Survival across a group of molecules:
tested on: Avena sterilis; test: Herbicidal activity against Avena sterilis accession P20 assessed as weed survival at 4 times field recommended herbicide dose; assay type: functional
Answer format: numeric, % implied, no suffix.

For orientation, consider the following solved cases.
What does the data say about its Survival? Entry: COCc1cnc(C2=NC(C)(C(C)C)C(=O)N2)c(C(=O)O)c1 (stereo unspecified) [IMAZAMOX] 0

What does the data say about its Survival? Entry: CCc1cc(C)cc(CC)c1-c1c(OC(=O)C(C)(C)C)n2n(c1=O)CCOCC2 [PINOXADEN] 0

What does the data say about its Survival? Entry: CCOC(=O)[C@@H](C)Oc1ccc(Oc2nc3ccc(Cl)cc3o2)cc1 [FENOXAPROP-P-ETHYL] 100

What does the data say about its Survival? Entry: C#CCOC(=O)[C@@H](C)Oc1ccc(Oc2ncc(Cl)cc2F)cc1 [CLODINAFOP PROPARGYL] 73

What does the data say about its Survival? Entry: CCO/N=C(\CC)C1=C(O)CC(c2c(C)cc(C)cc2C)CC1=O (stereo unspecified) [TRALKOXYDIM] 80

Now consider a different molecule.
What does the data say about its Survival? Entry: COC(=O)C(C)Oc1ccc(Oc2ccc(Cl)cc2Cl)cc1 (stereo unspecified) [DICLOFOP-METHYL] 100
